Values from PubChem BioAssay AID1159580

PROCEDURE DETAILS: chemical genetic growth profiling, strain panel (AID 1159580);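 also: tested at 20 µM; growth read once vehicle control cultures reached saturation at 30 °C; 1 = growth at the plate median or of vehicle wells; lower values mean less growth of the strain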
CONDITIONS: S. cerevisiae deletion strains, growth OD, locus YKL009W, strain mrt4
Among all 5,500 compounds or so, about 2,000 (36%) were called active. Another 18% or so got no clear call; they are omitted. Rule as the data show it: active = normalized growth mostly below about 0.91 (no sharp cut-off); inconclusive = no clear call, values can overlap the other calls; inactive = mostly above about 0.92. This is one part of the list.
Can you answer with just one of these options? 1 = active, 0 = inactive

Consider the worked cases shown below.
CC1(C)C(=O)C=C[C@@]2(C)C1C=C[C@]1(C)C2CC[C@@]2(C)[C@H](c3ccoc3)OC(=O)C3OC321 (stereo partly specified) :: 0
COc1ccc(Cl)cc1C(=O)NCCc1ccc(S(=O)(=O)NC(=O)NC2CCCCC2)cc1 :: 0
COc1ccc(-c2cc(=O)c3c(O)cc(O[C@@H]4O[C@H](CO[C@H]5O[C@H](C)[C@@H](O)[C@H](O)[C@@H]5O)[C@@H](O)[C@H](O)[C@H]4O)cc3o2)cc1O :: 0
CCC(N)C(O)c1ccc(O)c(O)c1 (stereo unspecified) :: 0
COc1cc(O)c2c(=O)c(O)c(-c3ccc(O)c(O)c3)oc2c1 :: 0
COc1cc(OC)c2c(=O)c(OC)c(-c3ccc(OC)c(OC)c3)oc2c1 :: 0
COc1cc(OC)c2c(=O)c(O)c(-c3ccc(OC)c(OC)c3)oc2c1 :: 1
CCN1C[C@]2(C)CC[C@H](OC)[C@]34C2[C@H](O)[C@]2(OCO[C@@]25C[C@H](OC)[C@H]2C[C@]3(O)C5[C@H]2O)C14 :: 0
NC(=O)c1ncn([C@@H]2O[C@H](CO)[C@@H](O)[C@H]2O)n1 :: 0
O=c1c(O)c(-c2cc(O)c(O)c(O)c2)oc2cc(O)cc(O)c12 :: 0

Could you please tell me the result logged for "O=C(O)C1=C[C@@H](O)[C@@H](O)[C@H](O)C1" in this assay? 0

Could you please tell me the result logged for C[C@@H]1O[C@@H](OC[C@H]2OC(Oc3c(-c4ccc(O)c(O)c4)oc4cc(O)cc(O)c4c3=O)[C@H](O)[C@@H](O)[C@@H]2O)[C@H](O)[C@H](O)[C@H]1O (stereo partly specified) in this assay? 0

Could you please tell me the result logged for "CCc1cc(C(N)=S)ccn1" in this assay? 0

Could you please tell me the result logged for "CCc1cccc(CC)c1N(COC)C(=O)CCl" in this assay? 0

Could you please tell me the result logged for "CCCCCc1c2c(cc(O)c1C(=O)O)OC(=O)c1c(cc(OC)cc1C(=O)CCCC)O2" in this assay? 0

Could you please tell me the result logged for CC1(C)C2CC(=O)[C@]3(C)C(CC[C@@]4(C)[C@H](c5ccoc5)OC(=O)C5OC543)[C@@]2(C)[C@@H](O)C[C@H]1O (stereo partly specified) in this assay? 0

Could you please tell me the result logged for CC(=O)O[C@@H]1CC2C(C)(C)C(=O)C=C[C@]2(C)C2CC[C@@]3(C)[C@H](c4ccoc4)OC(=O)[C@H]4O[C@]43[C@@]21C (stereo partly specified) in this assay? 0

Could you please tell me the result logged for "CC1(C)O[C@H]2CC(=O)OC[C@]23[C@H]2CC[C@@]4(C)[C@H](c5ccoc5)OC(=O)[C@H]5O[C@]54[C@]2(C)C(=O)C[C@@H]13" in this assay? 0
